These data points were gathered from paper PMC10515640.

Target: 14-3-3σ/C-RAF (Homo sapiens, UniProt P31947)
Construct: The 14-3-3 σ isoform (full-length for mass spectrometry and fluorescence anisotropy assays, ΔC for crystallography); made in house; host or cells: E. coli Rosetta 2(DE3)pLysS, pPROEX HTb vector
Sequence (P31947 whole entry, canonical isoform): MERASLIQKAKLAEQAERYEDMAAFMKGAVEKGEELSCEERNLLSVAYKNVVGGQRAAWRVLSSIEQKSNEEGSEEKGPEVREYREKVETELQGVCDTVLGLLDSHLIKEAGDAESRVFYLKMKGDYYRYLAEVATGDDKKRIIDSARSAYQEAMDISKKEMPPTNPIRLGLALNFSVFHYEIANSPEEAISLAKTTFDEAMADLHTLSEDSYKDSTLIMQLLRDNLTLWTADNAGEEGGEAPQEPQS
Experiment: Mass spectrometry dose response, compound binding to 14-3-3σ in the presence of C-RAF phosphopeptide
Conditions: 100 nM compound, 100 nM 14-3-3σ, C-RAF peptide 18 µM, 8h
recorded.metric: Percentage (%) bound of compound to 14-3-3σ, CRAF 8h

Worked examples, 4 molecules total:
>  <molecule>
Cl.O=C(CCl)NCC1CCN(C(=O)C2(Nc3ccccc3)CCNCC2)CC1

>  <target.desc>
14-3-3σ/C-RAF (Homo sapiens, UniProt P31947)

>  <units.of.measure>
%

>  <numeric.value>
1.0

$$$$
>  <molecule>
CC1(C)CC(Nc2ccc(Cl)cc2)(C(=O)N2CCC(CNC(=O)CCl)CC2)CC(C)(C)O1

>  <target.desc>
14-3-3σ/C-RAF (Homo sapiens, UniProt P31947)

>  <units.of.measure>
%

>  <numeric.value>
0

$$$$
>  <molecule>
O=C(CCl)NCC1CCN(C(=O)C2(Nc3ccccc3)CCC2)CC1

>  <target.desc>
14-3-3σ/C-RAF (Homo sapiens, UniProt P31947)

>  <units.of.measure>
%

>  <numeric.value>
0

$$$$
>  <molecule>
O=C(CCl)NCCC1CCN(C(=O)C2(Nc3ccc(Cl)cc3)CCNCC2)CC1

>  <target.desc>
14-3-3σ/C-RAF (Homo sapiens, UniProt P31947)

>  <units.of.measure>
%

>  <numeric.value>
1.0

$$$$

P = CC(C)(Oc1ccc(Cl)cc1)C(=O)N1CCC(CCC(=O)CCl)CC1
Q = O=C(CCl)CCC1CCN(C(=O)C2(Nc3ccc(Cl)cc3)CCOCC2)CC1
R = O=C(CCl)NCC1CCN(C(=O)C2(Nc3ccc(Cl)cc3)CCNCC2)CC1
S = O=C(CCl)NCC1CCN(C(=O)C2(Oc3ccccc3)CCCC2)CC1
T = NC1CCC(Nc2ccc(Cl)cc2)(C(=O)N2CCC(CNC(=O)CCl)CC2)CC1 (centres unmarked)
Sort these molecules on Percentage (%) bound of compound to 14-3-3σ, CRAF 8h so the largest reading comes first. Order the labels as requested and give them as your answer.
P, Q, S, T, R
(P: 99.9%, Q: 62.3%, S: 19.7%, T: 3.6%, R: 2.4%)

A = O=C(CCl)NCC1CCN(C(=O)C2(Oc3ccc(Cl)cc3)CCC(F)(F)CC2)CC1
B = O=C(CCl)NCCCC1CCN(C(=O)C2(Nc3ccc(Cl)cc3)CCNCC2)CC1
C = O=C(CCl)N1CCC2(CC1)CC(NC(=O)C1(Nc3ccc(Cl)cc3)CCOCC1)C2
Sort ascending by Percentage (%) bound of compound to 14-3-3σ, CRAF 8h. Order the labels as requested and give them as your answer.
B, A, C
(B: 0%, A: 2.9%, C: 13.4%)
